assay: in vitro; details: human, hela cells, % viability
reported property: viability at 28.5 h, 10 µM (%)
Entry rule: numbers only, all in %.

Sample answers from the record:
O=C(Nc1cccnc1)N1CCN(Cc2ccccc2)CC1	87.7
c1ccc(N2CCN(CC3CN(c4ccccc4)c4ccccc4O3)CC2)cc1 (stereo not drawn)	86
CC(C)(C)OC(=O)NC(C)(C)C(=O)N1C[C@H](C(=O)N2CCC3(CC2)CN(S(C)(=O)=O)c2ccccc23)[C@@H](c2nc3ccccc3s2)C1	91.5
COc1ccc(N2CCN(c3nc(N4CCOCC4)nc(N4CCOCC4)n3)CC2)cc1	100
COC(=O)c1c(NC(=O)c2cc(C)on2)sc(C(=O)Nc2ccc(Cl)cc2)c1C	89.7

Below: the item to evaluate.
Find the recorded viability at 28.5 h, 10 µM belonging to "CN1CCN(Cc2c(O)ccc3occ(C(=O)c4ccccc4)c23)CC1" and report it.
98.2
